Target: HLA-A*0301 (human)
Measured relative binding ratio (IC50 of standard peptide / IC50 of test peptide) of individual entries
I'd appreciate a reply containing only the number, no unit.

For orientation, consider the following solved cases.
LIRCLRCQK (modifications not checked) [HPV18 E6 peptide … (position 102, 9 amino acids)]    0.019
GLSFTDLVR (modifications not checked) [HPV45 E1 peptide … (position 209, 9 amino acids)]    0.0009
RFHNIAGHYR (modifications not checked) [HPV18 E6 peptide … (position 126, 10 amino acids)]    0.0023
VFEFAFKDLF (modifications not checked) [HPV18 E6 peptide … (position 44, 10 amino acids)]    0.0001
TGLYNLLIR (modifications not checked) [HPV18 E6 peptide … (position 96, 9 amino acids)]    0.0005

State the recorded relative binding ratio (IC50 of standard peptide / IC50 of test peptide) for this entry: SVAALYWYR (modifications not checked) [HPV45 E1 308 peptide … (SEQ ID NO: 37559)]
2.9

Name the recorded relative binding ratio (IC50 of standard peptide / IC50 of test peptide) for NSNAAAFLK (modifications not checked) [HPV33 E1 379 peptide … (SEQ ID NO: 36047)] .
0.0057

Query: relative binding ratio (IC50 of standard peptide / IC50 of test peptide); subject: LTEVFEFAFK (modifications not checked) [HPV18 E6 peptide … (position 41, 10 amino acids)]
0.0001

# credit: patent US7026443
